Values from PubChem BioAssay (NCATS)

- ASSAY_METHOD_TEXT: Primary qHTS for inhibitors of nuclear receptor binding SET domain protein 2 (NSD2) in an isogenic RCH-ACV NSD2 p.E1099K mutant (9B) (AID 1645876); further: nearly all actives have a fitted effect of over 70% in size
- REPORTED_CONDITIONS: RCH-ACV (leukaemia line) NSD2 E1099K (9B) viability, CellTiter-Glo, 72 h; series mostly up to 44.9 µM
Inconclusive results are not listed. Active and inactive are the calls of the source. The call rests on the fitted dose curve; in most records, active means well fitted inhibition curve with a large enough effect; inconclusive means small, poorly fitted or top-dose-only effect; inactive means flat fitted curve, though single readings scatter.
Please state which outcome applies, choosing from Y for active, N for inactive

MOLECULE	CLASS
CCOc1cc(N)c(Cl)cc1C(=O)NCC1CN(Cc2ccc(F)cc2)CCO1 (stereo not given)	Y
COc1cc(NS(=O)(=O)c2ccc(N)cc2)nc(OC)n1	N
CC(=O)[C@H]1CC[C@H]2[C@@H]3CC=C4C[C@@H](O)CC[C@]4(C)[C@H]3CC[C@]12C	N
CCCOc1ccc(C(=O)OCCN(CC)CC)cc1N	N

Now let's try a different one.
I would be grateful if you could indicate the recorded call for CC[C@H](NC(C)C)[C@H](O)c1ccc(O)c2[nH]c(=O)ccc12 . N

---

- MEASURED_ON: M-phase phosphoprotein 8 (Homo sapiens) (UniProt Q99549)
- Sequence (Q99549 whole entry, looked up): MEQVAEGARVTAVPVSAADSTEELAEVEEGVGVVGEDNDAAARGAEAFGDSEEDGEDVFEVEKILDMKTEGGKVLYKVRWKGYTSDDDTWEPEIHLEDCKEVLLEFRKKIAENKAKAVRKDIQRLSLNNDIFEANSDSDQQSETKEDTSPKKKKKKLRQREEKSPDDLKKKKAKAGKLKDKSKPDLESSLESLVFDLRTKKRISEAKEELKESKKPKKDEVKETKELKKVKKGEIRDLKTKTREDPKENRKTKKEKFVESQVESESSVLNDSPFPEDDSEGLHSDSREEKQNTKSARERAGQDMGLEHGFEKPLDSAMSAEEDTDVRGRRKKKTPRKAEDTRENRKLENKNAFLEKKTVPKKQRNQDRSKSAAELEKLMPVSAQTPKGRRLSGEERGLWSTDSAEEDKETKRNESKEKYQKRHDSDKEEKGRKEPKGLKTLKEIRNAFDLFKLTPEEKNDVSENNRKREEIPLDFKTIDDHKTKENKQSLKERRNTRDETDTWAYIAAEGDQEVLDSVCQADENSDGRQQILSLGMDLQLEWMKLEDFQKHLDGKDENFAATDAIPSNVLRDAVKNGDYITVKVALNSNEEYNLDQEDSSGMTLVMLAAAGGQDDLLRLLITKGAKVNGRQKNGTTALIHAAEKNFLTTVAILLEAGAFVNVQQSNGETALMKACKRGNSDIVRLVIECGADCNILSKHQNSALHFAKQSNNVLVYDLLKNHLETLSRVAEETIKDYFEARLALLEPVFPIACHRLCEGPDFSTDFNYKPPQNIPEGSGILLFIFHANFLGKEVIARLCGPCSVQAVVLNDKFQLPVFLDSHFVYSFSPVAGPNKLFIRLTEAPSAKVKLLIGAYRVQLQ
- ASSAY_METHOD_TEXT: qHTS Validation Assay for Inhibitors for MPP8 Chromodomain Interactions with Methylated Histone Tails (AID 488949); further: nearly all actives have a fitted effect of over 55% in size
- REPORTED_CONDITIONS: AlphaScreen MPP8 binding to H3K9me3 peptide; series mostly up to 57.1 µM
Records with an inconclusive call do not appear. Activity calls are given as the source filed them. Calls come from the whole dose curve; as a rule, active = well fitted inhibition curve with a large enough effect; inconclusive = small, poorly fitted or top-dose-only effect; inactive = no such curve, though single readings can be large or run the other way.
Please state which outcome applies, choosing from active, inactive

COMPOUND	MEASURED_ON	CLASS
CC1CC2C3CCC4=CC(=O)C=C[C@]4(C)[C@@]3(F)[C@@H](O)C[C@]2(C)[C@@]1(O)C(=O)CO (some centres undefined)	M-phase phosphoprotein 8 (Homo sapiens) (UniProt Q99549)	inactive
COc1cc2nc(N3CCCN(C)CC3)nc(NC3CCN(Cc4ccccc4)CC3)c2cc1OC	M-phase phosphoprotein 8 (Homo sapiens) (UniProt Q99549)	inactive

I would be grateful if you could indicate the recorded call for N[C@@H](Cc1ccc(O)c(O)c1)C(=O)O . active

I would be grateful if you could indicate the recorded call for CCN(CC)CC#CCOC(=O)C(O)(c1ccccc1)C1CCCCC1 (centres undefined) . inactive

I would be grateful if you could indicate the recorded call for CC(C)(C)NC(=O)[C@H]1CC[C@H]2[C@@H]3CC[C@H]4NC(=O)C=C[C@]4(C)[C@H]3CC[C@]12C . inactive

---

- ASSAY_METHOD_TEXT: qHTS for identification of novel therapeutic agents for treatment of microphthalmiaassociated transcription factor (MiT) renal cell carcinoma (RCC) (AID 1963991)
- REPORTED_CONDITIONS: TFE3-RCC UOK109 viability, CellTiter-Glo, 48 h; measured here: UOK109 Z-AUC; stronger effect = lower value
- Method: PI: Marston Linehan Ph.D. Urologic Oncology Branch, Center for Cancer Research (CCR) National Cancer Institute (NCI), National Institute of Health (NIH), Bethesda, Maryland […] 6; Detection; Luminescence; ViewLux plate reader (PerkinElmer). […] 1. Quantitative high-throughput screening (qHTS) of 1912 pharmacologically defined small molecule compounds was conducted on three TFE3-fusion cell lines bearing three different fusion partners (UOK109, UOK124, UOK145). […]
Inconclusive results are not listed.
// NB: equality with 0.7 counts as Not satisfied; only z-score strictly below is Satisfied

COMPOUND	CLASS
COCCCOc1cc(C[C@@H](C[C@H](N)[C@@H](O)C[C@H](C(=O)NCC(C)(C)C(N)=O)C(C)C)C(C)C)ccc1OC	Not satisfied
Cc1onc(-c2ccccc2Cl)c1C(=O)N[C@@H]1C(=O)N2[C@@H]1SC(C)(C)[C@@H]2C(=O)O	Not satisfied
CCn1cc(C(=O)O)c(=O)c2cc(F)c(N3CCN(C)CC3)cc21	Not satisfied
CCCc1cc(C(N)=S)ccn1	Not satisfied
CC(C)OC(=O)OCOP(=O)(CO[C@H](C)Cn1cnc2c(N)ncnc21)OCOC(=O)OC(C)C	Satisfied

Answer whether the compound COc1c(N2CCNC(C)C2)c(F)cc2c(=O)c(C(=O)O)cn(C3CC3)c12 (stereo unspecified) has z-score strictly less than 0.7 Satisfied

Answer whether the compound CC(C)C[C@H](NC(=O)[C@H](CCc1ccccc1)NC(=O)CN1CCOCC1)C(=O)N[C@@H](Cc1ccccc1)C(=O)N[C@@H](CC(C)C)C(=O)[C@@]1(C)CO1 has z-score strictly less than 0.7 Satisfied

Answer whether the compound CCn1cc(C(=O)O)c(=O)c2cc(F)c(N3CCNCC3)cc21 has z-score strictly less than 0.7 Not satisfied
